Tested on: CD2F1 mice, L1210 leukemia ip, survival T/C
Assay: NCI In Vivo Anticancer Drug Screen. Data for tumor model L1210 Leukemia (intraperitoneal) in CD2F1 (CDF1) mice
Details: endpoint: mean survival time; dose: 100.0 mg/kg/injection; schedule: Q01DX009 (ip); vehicle: saline with Tween-80; higher = longer survival
Inconclusive results and toxic doses are left out.
readout: T/C

Below, each entry is followed by its recorded T/C result.
Brc1ccc2c(c1)C(Br)c1ccccc1-2 (configuration not stated)	103 % of control
O=C(O)C(Cl)(c1ccccc1)C(Cl)c1ccccc1 (configuration not stated)	100 % of control

Dear colleague, could you please provide T/C for the molecules listed below?
1. CCNC(=S)NNc1ccccc1
2. CCOC(=O)Nc1cc(F)cc(C(F)(F)F)c1F
3. OCc1ccc(Cl)cc1Cl

Given back:
1: 100 % of control; 2: 97 % of control; 3: 93 % of control

For every listed record, write down its T/C.
1. Cc1cc(C(=O)c2ccccn2)c2cc(Cl)cc(Cl)c2n1
2. COc1ccc(C=Nc2ccc(C)cc2)cc1

Given back:
1. 93 % of control
2. 108 % of control

###

Answer each item with its documented T/C.
System: CD2F1 mice, L1210 leukemia ip, survival T/C
Assay: NCI In Vivo Anticancer Drug Screen. Data for tumor model L1210 Leukemia (intraperitoneal) in CD2F1 (CDF1) mice
Settings: endpoint: mean survival time; dose: 400.0 mg/kg/injection; schedule: Q01DX001 (ip); vehicle: saline; higher = longer survival
Method: The antitumor activity of compounds was measured in mice bearing transplantable tumors. Survival or tumor size were measured and the results are expressed as the measurement made in the treated group (T) divided by the measurement made in the vehicle treated control group (C). The tumor model used in this assay is L1210 Leukemia (intraperitoneal) in CD2F1 (CDF1) mice
Toxic doses and inconclusive results are not listed.

Use these answered entries as a reference point.
Nn1cnc2ccccc2c1=O	102 % of control
Nc1nc(Cl)c2nc(Cl)n(C3OC(CO)C(O)C3O)c2n1 (stereo unspecified)	100 % of control
CN(C)c1ccc(C(=O)OOOOC(c2ccc(N(C)C)cc2)(c2ccc(N(C)C)cc2)c2ccc(N(C)C)cc2)cc1	89 % of control
CCC1Cc2c([nH]c(=O)n(-c3ccccc3)c2=O)O1 (stereo unspecified)	92 % of control
O=C(O)CCSCCC(=O)O	101 % of control

Now look at this one.
Asked: What does the record list as T/C for CCCC(=O)c1cc(O)ccc1O ?
Given back: 104 % of control

###

System: CD2F1 mice, L1210 leukemia ip, survival T/C
Assay: NCI In Vivo Anticancer Drug Screen. Data for tumor model L1210 Leukemia (intraperitoneal) in CD2F1 (CDF1) mice
Settings: endpoint: mean survival time; dose: 25.0 mg/kg/injection; schedule: Q01DX009 (ip); vehicle: other
Toxic doses and inconclusive results are not listed. How the source made its calls: active means survival T/C of 150% or more; inactive means T/C below 125% in these data.
I would appreciate it if you answered using one of these outcomes: active, inactive

Use these answered entries as a reference point.
C=CCN(N=O)C(=O)OCC	inactive
Nc1ccn(C2OC(COC(=O)C34CC5CC(CC(C5)C3)C4)C(O)C2O)c(=O)n1 (stereo not given)	active
Oc1cc2c3c(c1)c1cc4c(cc1c[n+]3CC2)OCO4	inactive
COc1ccc(C(=O)NCCc2ccc(OC)c(OC)c2)cc1O	inactive

Note: attention shifts to another entry.
Asked: What did this assay record as the result for O=C(CCCl)c1ccccc1 ?
Given back: inactive
